Assay: 1st order degradation kinetics of ferulic acid / tetrahydrocurcumin in glucagon formulations
Type: physicochemical
Settings: buffer, pH 9, 1 mM compound in 80 mM glycine pH 9.0 + 1 mg/ml glucagon; read-out: degradation t1/2 (converted)
property: half-life at 1 mM (days)
Value expressed in days; do not type the unit.

Challenge: Note half-life at 1 mM for the molecule shown: COc1cc(CCC(=O)CC(=O)CCc2ccc(O)c(OC)c2)ccc1O [tetrahydrocurcumin]
Response given: 38.9

====

Experiment: Curcumin half-life in glycine buffer at pH 9.0
Type: physicochemical
Conditions: glucagon buffer with further addition of human serum albumin
Source text: Curcumin reduces Aβ fibril formation in vitro and when administered systemically to transgenic rodents predisposed to Alzheimer's disease (Hamaguchi T et al, Am J Pathol 175, 2557-2565 (2009) incorporated by reference herein). […]
property: half-life (h)
Value expressed in h; do not type the unit.

Challenge: Note half-life for the molecule shown: "COc1cc(/C=C/C(=O)CC(=O)/C=C/c2ccc(O)c(OC)c2)ccc1O"
Response given: 33.5

====

Assay: Curcumin half-life in glycine buffer at pH 9.0
Format: physicochemical
Conditions: in a glucagon buffer
property: half-life (h)
Value expressed in h; do not type the unit.

Challenge: Note half-life for the molecule shown: "COc1cc(/C=C/C(=O)CC(=O)/C=C/c2ccc(O)c(OC)c2)ccc1O"
Response given: 12.5
